Where do these numbers come from? They come from ChEMBL document CHEMBL3576842.

Assay: Antioxidant activity assessed as DPPH radical scavenging activity at 1 mM after 1 hr
Assay type: physicochemical
Details: 1000 µM

Compound | Activity
O=c1c(O)c(-c2ccc(O)c(O)c2)oc2cc(O)cc(O)c12 [QUERCETIN] | 95.6%
COc1cc(O)c2c(=[Se])c(OC)c(-c3ccc(OC)c(OC)c3)oc2c1 | 90.4%
COc1cc(O)c2c(=S)c(OC)c(-c3ccc(OC)c(OC)c3)oc2c1 | 18.3%
COc1cc(O)c2c(=O)c(OC)c(-c3ccc(OC)c(OC)c3)oc2c1 [RETUSIN] | 2.5%

---

Assay: Antioxidant activity assessed as DPPH radical scavenging activity after 1 hr
Format: physicochemical
Parameter IC50: see the listing below.

Test Smiles | IC50 / µM
COc1cc(O)c2c(=[Se])c(OC)c(-c3ccc(OC)c(OC)c3)oc2c1 | 74
Oc1cc(O)c2c(=[Se])cc(-c3ccccc3)oc2c1 | 659
O=C1O[C@H]([C@@H](O)CO)C(O)=C1O | 6
O=c1c(O)c(-c2ccc(O)c(O)c2)oc2cc(O)cc(O)c12 | 28
Oc1cc(O)c2c(=S)cc(-c3ccccc3)oc2c1 | 4600
